- target-or-system: apical sodium dependent bile acid transporter (hASBT) (Homo sapiens, UniProt Q12908)
- Sequence (Q12908 whole entry): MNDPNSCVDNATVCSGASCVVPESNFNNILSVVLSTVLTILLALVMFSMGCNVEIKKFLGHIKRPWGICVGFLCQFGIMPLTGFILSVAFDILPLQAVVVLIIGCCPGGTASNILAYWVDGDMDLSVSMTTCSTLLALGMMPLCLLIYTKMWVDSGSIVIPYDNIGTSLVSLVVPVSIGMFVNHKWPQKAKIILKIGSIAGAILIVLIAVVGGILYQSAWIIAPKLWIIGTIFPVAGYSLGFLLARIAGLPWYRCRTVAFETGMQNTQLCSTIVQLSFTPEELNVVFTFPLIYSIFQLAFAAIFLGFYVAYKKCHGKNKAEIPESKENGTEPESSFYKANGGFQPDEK
- test-method-notes: inhibition of [3H]-taurocholate uptake in stably transfected hASBT-MDCK cells
pKi: −log10 of the molar value.
recorded-metric: pKi

1. C[C@H](CCC(=O)NCC(=O)O)[C@H]1CC[C@H]2[C@@H]3[C@H](O)C[C@@H]4C[C@H](O)CC[C@]4(C)[C@H]3C[C@H](O)[C@]12C [GCA, glycocholic acid]	5.08

###

- target-or-system: Na+/taurocholate cotransporting polypeptide (hNTCP) (Homo sapiens, UniProt Q14973)
- Sequence (Q14973 whole entry): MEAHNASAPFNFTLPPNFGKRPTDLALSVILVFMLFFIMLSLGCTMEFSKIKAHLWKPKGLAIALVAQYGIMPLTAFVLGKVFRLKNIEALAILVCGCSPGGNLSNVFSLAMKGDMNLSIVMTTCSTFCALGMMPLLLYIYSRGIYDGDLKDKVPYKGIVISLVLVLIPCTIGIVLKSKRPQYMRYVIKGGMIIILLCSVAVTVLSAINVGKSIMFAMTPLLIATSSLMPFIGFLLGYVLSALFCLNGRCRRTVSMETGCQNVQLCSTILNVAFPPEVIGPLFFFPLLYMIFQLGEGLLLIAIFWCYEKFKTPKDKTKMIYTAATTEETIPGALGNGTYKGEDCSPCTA
- test-method-notes: inhibition of [3H]-taurocholate uptake in transiently transfected hNTCP-HEK293T cells
recorded-metric: Ki (nM)

1. C[C@H](CCC(=O)NCC(=O)O)[C@H]1CC[C@H]2[C@@H]3[C@H](O)C[C@@H]4C[C@H](O)CC[C@]4(C)[C@H]3C[C@H](O)[C@]12C [GCA, glycocholic acid]	2470
